- study-target: RSV F on RSV subtype B virus (mKate-RSV B 18537) (respiratory syncytial virus B 18537, UniProt P13843 26-574)
- Sequence (P13843 26-574): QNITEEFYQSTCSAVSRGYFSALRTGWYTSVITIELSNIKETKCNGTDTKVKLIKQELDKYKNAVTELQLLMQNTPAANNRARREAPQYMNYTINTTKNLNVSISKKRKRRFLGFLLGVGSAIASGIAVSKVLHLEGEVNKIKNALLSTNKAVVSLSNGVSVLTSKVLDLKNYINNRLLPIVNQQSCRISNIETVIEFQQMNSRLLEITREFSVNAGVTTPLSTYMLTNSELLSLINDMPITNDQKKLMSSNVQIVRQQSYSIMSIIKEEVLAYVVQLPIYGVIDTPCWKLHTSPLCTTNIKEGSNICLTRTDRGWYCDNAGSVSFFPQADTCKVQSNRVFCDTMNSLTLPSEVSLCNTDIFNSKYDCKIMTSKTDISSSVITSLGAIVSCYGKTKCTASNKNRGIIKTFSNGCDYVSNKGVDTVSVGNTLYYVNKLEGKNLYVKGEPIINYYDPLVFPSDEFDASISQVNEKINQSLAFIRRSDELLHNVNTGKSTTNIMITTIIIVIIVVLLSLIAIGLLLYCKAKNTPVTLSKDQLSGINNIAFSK
- method-summary: cell-based or functional assay
Kindly supply the reported Neut IC50 subtype B values for the records listed here.
Write down the numeric answer in µg/mL and omit the unit.

Quick one: Neut IC50 subtype B for ADI-19425 (antibody, V domains shown, full-length IgG; also called Ab 140) VH: EVQLVESGGGLVKPGGSLRLSCAASGFTFSSYSMNWVRQAPGKGLEWVSSISSSSSYIYYADSVKGRFTISRDNAKNSLYLQMNSLRAEDTAVYYCARLGYCSGGSCHFDYWGQGTLVTVSS VL: QPVLTQPPSVSGAPGQRVTISCTGSSSNIGAGYDVHWYQQLPGTAPKLLIYGNSNRPSGVPDRFSGSKSGTSASLAITGLQAEDEADYYCQSYDSSLSGFYVFGTGTKLTVL ?
0.04

Quick one: Neut IC50 subtype B for ADI-14340 (antibody, V domains shown, full-length IgG; also called Ab 8) VH: EVQLVESGGGLVKPGGSLRLSCAASGFTLSSYTMNWVRQAPGRGLEWVSSIYSTSSYIYYADSVKGRFTISRDNAKNSLYLQMNSLRAEDTAVYYCARDSQAVTGTDLYFDSWGQGTLVTVSS VL: QPGLTQPPSVSVAPGKTARITCGGNNIGRKNVHWYQQKPGQAPILVIYYDSDRPSGIPERFSGSNSGNTATLTISRVEDGDEADYYCQVWDSSNDHVIFGGGTQLTVL ?
1.94

Quick one: Neut IC50 subtype B for ADI-14342 (antibody, V domains shown, full-length IgG; also called Ab 10) VH: QVTLKESGPVLVKPTETLTLTCTVSGFSLSNAKMGVSWIRQPPGKALEWLAYISSNDEKSYSTSLKSRLTISKDTSKSQVVLTMTNMDPVDTATYYCARILLYDSSGYYLWYFDLWGRGTLVTVSS VL: DIQVTQSPSSLSASVGDRVTITCRASQRITSYLNWYQHKPGKAPKLLIFAASSLHSGVPSTFSGSGSGTDFTLTISSLQPEDFATYYCQQSYSTPWTFGQGTKVEIK ?
8.27

Quick one: Neut IC50 subtype B for ADI-19424 (antibody, V domains shown, full-length IgG) VH: EVQLLESGGGLVQPGGSLRLSCAASGFTVSSNYMSWVRQAPGKGLEWVSDIYSGGRTDYADSVKGRFTISRDNSKNTLDLQMNSLRAEDTAVYYCARETLGMDHWYFDLWGRGTLVTVSS VL: QPGLTQPPSVSVAPGKTARITCGGNNIGSKSVHWYQQKPGQAPVLVVYDDSDRPSGIPERFSGSNSGNTATLTISRVEAGDEADYYCQVWDSTSDHPVFGGGTKLTVL ?
0.21

Quick one: Neut IC50 subtype B for ADI-25480 (antibody, V domains shown, full-length IgG; also called Ab 430) VH: EVQLVESGGGLVKPGGSLRLSCAASGFTFSSYSMNWVRQAPGKGLEWVSSISSSSSYIYYADSVKGRFTISRDNAKNSLYLQMNSLRAEDTAVYYCARGGYSYGAYYYYYMDVWGKGTTVTVSS VL: QSVLTQPPSVSGAPGQRVTISCTGSSSNIGAGYDVHWYQQLPGTAPKLLIYGNSNRPSGVPDRFSGSKSGTSASLAITGLQAEDEADYYCQSYDSSLSGYWVFGGGTKVTVL ?
0.17
